# Tested on: Escherichia coli TOP10
# procedure.text: shrunken log2 fold change of peptide-encoding DNA abundance (4.5 h post-induction vs induction); higher = less antimicrobial activity (less host growth inhibition)
# test.parameters: time post-induction: 4.5 h; library: site-saturation at positions 5, 18, 19, 20
If the reported shrunken log2 fold change equals or exceeds -0.02, assign condition met. If not, assign condition not met.

Please review the entries below; each comes with its answer.
>>> print(df.to_string())
          polymer_sequence              label
0  RRIRVRPPRLPRPRPRPYVYPRP      condition met
1  RRIRARPPRLPRPRPRPHNHPRP  condition not met
2  RRIRCRPPRLPRPRPRPMMFPRP      condition met
3  RRIRARPPRLPRPRPRPCHQPRP  condition not met

# check: shrunken log2 fold change of RRIRVRPPRLPRPRPRPEWWPRP is greater than or equal to -0.02
condition met

Could you verify whether the entry RRIRRRPPRLPRPRPRPQVGPRP shows shrunken log2 fold change of no less than -0.02?
condition met

Is shrunken log2 fold change at least -0.02? Consider RRIRQRPPRLPRPRPRPAQYPRP
condition not met

Determine whether measured shrunken log2 fold change meets or exceeds -0.02 for RRIRVRPPRLPRPRPRPNNGPRP
condition not met

Please indicate if the recorded shrunken log2 fold change for RRIRIRPPRLPRPRPRPECNPRP meets or exceeds -0.02.
condition not met

Does the reported shrunken log2 fold change for RRIRPRPPRLPRPRPRPTLDPRP fall at or above the -0.02 mark?
condition met

Entry RRIRERPPRLPRPRPRPSSEPRP : is its shrunken log2 fold change no less than -0.02?
condition not met

Does shrunken log2 fold change meet or surpass -0.02 for RRIRCRPPRLPRPRPRPMILPRP ?
condition not met

Given the entry RRIRYRPPRLPRPRPRPWCCPRP , answer whether its shrunken log2 fold change meets or surpasses -0.02.
condition not met

* * *

# Tested on: Escherichia coli TOP10
# procedure.text: shrunken log2 fold change of peptide-encoding DNA abundance (4.5 h post-induction vs induction); higher = less antimicrobial activity (less host growth inhibition)
# test.parameters: time post-induction: 4.5 h; library: site-saturation at positions 5, 18, 19, 20
assay.metric: shrunken log2 fold change
Output spec: single numeric token, no unit.

>>> print(df.to_string())
          polymer_sequence               assay_metric  obs_value
0  RRIRDRPPRLPRPRPRPFSDPRP  shrunken log2 fold change     -0.016
1  RRIRNRPPRLPRPRPRPWVYPRP  shrunken log2 fold change    -0.0702
2  RRIRWRPPRLPRPRPRPAVWPRP  shrunken log2 fold change       0.32
3  RRIRARPPRLPRPRPRPEVVPRP  shrunken log2 fold change       1.32

What value of shrunken log2 fold change has been reported for the following sequence? RRIRTRPPRLPRPRPRPRGFPRP
0.732

Consider the sequence shown here: RRIRSRPPRLPRPRPRPAPYPRP What is its recorded shrunken log2 fold change?
0.265

Fill blank: measured shrunken log2 fold change of the sequence RRIRGRPPRLPRPRPRPRHIPRP is ____.
0.192

* * *

# System: Escherichia coli TOP10
# procedure.text: shrunken log2 fold change of peptide-encoding DNA abundance (4.5 h post-induction vs induction); higher = less antimicrobial activity (less host growth inhibition)
# test.parameters: time post-induction: 4.5 h; library: site-saturation at positions 5, 18, 19, 20
shrunken log2 fold change class ranges: low group = under -0.1, middle group = from -0.1 up to 0.06, high group = 0.06 and over

Please indicate the class for RRIRCRPPRLPRPRPRPEQTPRP based on its shrunken log2 fold change.
high group

Given RRIRSRPPRLPRPRPRPTTRPRP , name the class its shrunken log2 fold change places it in.
high group

State the class of the sequence shown: RRIRWRPPRLPRPRPRPVPKPRP
high group

# classify by shrunken log2 fold change band: RRIRERPPRLPRPRPRPHGGPRP
middle group

For RRIRPRPPRLPRPRPRPYNIPRP , which shrunken log2 fold change bin applies?
low group

Into which category would you place RRIRQRPPRLPRPRPRPANNPRP ?
low group

Which band does RRIRPRPPRLPRPRPRPIMHPRP fall in?
middle group

Category lookup for the sequence RRIRVRPPRLPRPRPRPKMPPRP
middle group

Which shrunken log2 fold change band matches RRIRARPPRLPRPRPRPRIIPRP ?
high group

Please classify: RRIRVRPPRLPRPRPRPHVHPRP
low group

Which bin, given its shrunken log2 fold change, does RRIRNRPPRLPRPRPRPAWIPRP occupy?
high group

Using the reported shrunken log2 fold change, which band applies to RRIRRRPPRLPRPRPRPYCFPRP ?
low group

Record RRIRMRPPRLPRPRPRPIMIPRP — which class?
low group

Which bin should I file RRIRWRPPRLPRPRPRPIGKPRP under?
middle group

Entry RRIRVRPPRLPRPRPRPAQHPRP belongs to which category?
high group

* * *

# Tested on: Escherichia coli TOP10
# procedure.text: shrunken log2 fold change of peptide-encoding DNA abundance (4.5 h post-induction vs induction); higher = less antimicrobial activity (less host growth inhibition)
# test.parameters: time post-induction: 4.5 h; library: site-saturation at positions 5, 18, 19, 20
Classify by shrunken log2 fold change. Ranges: bucket A: < -0.1; bucket B: ≥ -0.1 and < 0.1; bucket C: ≥ 0.1

Below, 3 sequences whose answers are already recorded.
          polymer_sequence       system_under_test     label
0  RRIRGRPPRLPRPRPRPMPLPRP  Escherichia coli TOP10  bucket C
1  RRIRARPPRLPRPRPRPNDFPRP  Escherichia coli TOP10  bucket A
2  RRIRIRPPRLPRPRPRPVVKPRP  Escherichia coli TOP10  bucket A

Which shrunken log2 fold change band matches RRIRMRPPRLPRPRPRPNHAPRP ?
bucket A

Returns: class label. Input: RRIRCRPPRLPRPRPRPWAKPRP
bucket A

Band assignment needed for RRIRGRPPRLPRPRPRPRQAPRP please.
bucket C

Which shrunken log2 fold change band matches RRIRFRPPRLPRPRPRPMWNPRP ?
bucket A

Looking at RRIRIRPPRLPRPRPRPVIIPRP , which class would you pick?
bucket A

Hi there! Could you help me figure out the category for RRIRQRPPRLPRPRPRPERNPRP please?
bucket B

Band of RRIRCRPPRLPRPRPRPKPFPRP ?
bucket B

Which shrunken log2 fold change category applies to RRIRDRPPRLPRPRPRPSRPPRP here?
bucket C

Hey, which category is RRIRFRPPRLPRPRPRPPACPRP in, do you know?
bucket C

The entry to classify is RRIRARPPRLPRPRPRPTWQPRP ; which class holds it?
bucket C

Please indicate the class for RRIRYRPPRLPRPRPRPPFWPRP based on its shrunken log2 fold change.
bucket C

Hello team, could you let me know which band the following sequence falls into: RRIRRRPPRLPRPRPRPVNSPRP
bucket B

Which shrunken log2 fold change band matches RRIRVRPPRLPRPRPRPVGVPRP ?
bucket C

Please let me know in which category the item RRIRQRPPRLPRPRPRPLQPPRP belongs.
bucket B

* * *

# System: Escherichia coli TOP10
# procedure.text: shrunken log2 fold change of peptide-encoding DNA abundance (4.5 h post-induction vs induction); higher = less antimicrobial activity (less host growth inhibition)
# test.parameters: time post-induction: 4.5 h; library: site-saturation at positions 5, 18, 19, 20
assay.metric: shrunken log2 fold change
Just the number, please, no unit after it.

>>> print(df.to_string())
          polymer_sequence  obs_value
0  RRIRERPPRLPRPRPRPIRGPRP     0.0978
1  RRIRKRPPRLPRPRPRPTYCPRP      0.135
2  RRIRVRPPRLPRPRPRPPLDPRP      0.433
3  RRIRCRPPRLPRPRPRPDLKPRP     -0.257
4  RRIRYRPPRLPRPRPRPSGMPRP    -0.0611

Let's switch to this sequence now.
I would be grateful if you could share the reported shrunken log2 fold change for RRIRQRPPRLPRPRPRPLRIPRP .
0.116

* * *

# System: Escherichia coli TOP10;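 note: peptides expressed intracellularly from a pBAD plasmid library in pooled LB shake-flask culture, induced with 0.3% L-arabinose, DNA abundance read by NGS, three biological replicates, DESeq2 with apeglm shrinkage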
# procedure.text: shrunken log2 fold change of peptide-encoding DNA abundance (4.5 h post-induction vs induction); higher = less antimicrobial activity (less host growth inhibition)
# test.parameters: time post-induction: 4.5 h; library: site-saturation at positions 5, 18, 19, 20
Consider the following sequences and their measured shrunken log2 fold change readings.

As a guide, the following entries are already answered.
In [3]: df
Out[3]:
          polymer_sequence               assay_metric  obs_value
0  RRIRTRPPRLPRPRPRPDAHPRP  shrunken log2 fold change      0.128
1  RRIRVRPPRLPRPRPRPSMCPRP  shrunken log2 fold change     -0.528
2  RRIRDRPPRLPRPRPRPLEYPRP  shrunken log2 fold change      0.061
3  RRIRYRPPRLPRPRPRPWPQPRP  shrunken log2 fold change     0.0526
4  RRIRHRPPRLPRPRPRPSSYPRP  shrunken log2 fold change     -0.649
5  RRIRSRPPRLPRPRPRPIKIPRP  shrunken log2 fold change     -0.209
6  RRIRPRPPRLPRPRPRPRTDPRP  shrunken log2 fold change      0.165
7  RRIRQRPPRLPRPRPRPSGVPRP  shrunken log2 fold change     -0.141

Pending sequence:
# query: shrunken log2 fold change of entry RRIRPRPPRLPRPRPRPMVKPRP
-0.154
